B1: HDV Ribozyme (parent)
chain: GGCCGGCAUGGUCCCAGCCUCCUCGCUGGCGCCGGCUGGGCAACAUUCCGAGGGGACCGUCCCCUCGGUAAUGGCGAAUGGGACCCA

variants of: B1; test: self-cleavage, relative activity (ratio to wild type); higher = more cleavage; co-transcriptional
Everything with self-cleavage lower than 0.8 is N; everything else, including exactly 0.8, is Y.

Ask: State whether the measured self-cleavage reaches 0.8, counting equality as reaching it, for GGCCGGCAUGGUCCCGGCCUCCUCGCUGGCGCCGGCUGGGCAACAUUCCGAGGGGACCGUCCCCUAGGUAAUGGCGAAUGGGACCCA [A16G C66A]
Result: Y

Ask: Note, next up: GGCCGGCAUGGUCCCAGCCUCCUCGCUGGCGCCGGCUGUGCAACAUUCCGAGGGGACCGUCCCCUCGGUACUGGCGAAUGGGACCCA [G39U A71C]
Result: N

Ask: Next variant: GGCCGGCAUGGUUCCAGCCUCCUCGGUGGCGCCGGCUGGGCAACAUUCCGAGGGGACCGUCCCCUCGGUAAUGGCGAAUGGGACCCA [C13U C26G]
Result: Y

Ask: GGCCGGCAUGGUCCCAGCCUCCUCGCUGGCGCCGUCUGGGCAACAUUACGAGGGGACCGUCCCCUCGGUAAUGGCGAAUGGGACCCA [G35U C48A] , same question.
Result: N

Ask: # iterate: GGCCGGCAUGGUCCCAGGCUCCUCGCUGGCGCCGGCUGGGCAACAUUCCGAGGGGACCGUCCCCUCGAUAAUGGCGAAUGGGACCCA [C18G G68A]
Result: N

Ask: Also, AGCCGGCAUGGUCCCAGCCUCCUCGCUGGCGCCGGCUGGGCAACAUUCUGAGGGGACCGUCCCCUCGGUAAUGGCGAAUGGGACCCA [G1A C49U] please.
Result: N
